- test method notes: clinical
- Set-up: species or system human
- measurement parameters: human, in vivo, iv, 400 mg
Peptide text beside a SMILES is read from it.
assay readout: half-life
Write your answer as a measured quantity: the number, then the unit.

INPUT: Name the recorded half-life for CC(=O)N[C@H](C(=O)N[C@H](CO)C(=O)N[C@H]1CCNC(=O)[C@H]([C@@H](C)O)NC(=O)[C@H](CCN)NC(=O)[C@H](CCN)NC(=O)[C@H](CC(C)C)NC(=O)[C@@H](Cc2ccccc2)NC(=O)[C@H](CCN)NC1=O)[C@@H](C)O [SPR741] (HELM PEPTIDE1{[ac].T.[dS].[Dab].[Dab].[dF].L.[Dab].[Dab].T}$PEPTIDE1,PEPTIDE1,4:R3-10:R2$$$V2.0) .
OUTPUT: 3.47 h

====

- test method notes: clinical
- Parameters: species or system human
- measurement parameters: human, in vivo, iv, 600 mg
Peptide text beside a SMILES is read from it.
assay readout: clearance (mL/min)
Answers are plain numbers, in mL/min.

INPUT: Name the recorded clearance for CC(=O)N[C@H](C(=O)N[C@H](CO)C(=O)N[C@H]1CCNC(=O)[C@H]([C@@H](C)O)NC(=O)[C@H](CCN)NC(=O)[C@H](CCN)NC(=O)[C@H](CC(C)C)NC(=O)[C@@H](Cc2ccccc2)NC(=O)[C@H](CCN)NC1=O)[C@@H](C)O [SPR741] (HELM PEPTIDE1{[ac].T.[dS].[Dab].[Dab].[dF].L.[Dab].[Dab].T}$PEPTIDE1,PEPTIDE1,4:R3-10:R2$$$V2.0) .
OUTPUT: 77

====

- test method notes: clinical
- measurement parameters: human, in vivo, iv, 400 mg
Peptide text beside a SMILES is read from it.
assay readout: Tmax (h)
Numbers only, in h.

INPUT: Name the recorded Tmax for CC(=O)N[C@H](C(=O)N[C@H](CO)C(=O)N[C@H]1CCNC(=O)[C@H]([C@@H](C)O)NC(=O)[C@H](CCN)NC(=O)[C@H](CCN)NC(=O)[C@H](CC(C)C)NC(=O)[C@@H](Cc2ccccc2)NC(=O)[C@H](CCN)NC1=O)[C@@H](C)O [SPR741] (HELM PEPTIDE1{[ac].T.[dS].[Dab].[Dab].[dF].L.[Dab].[Dab].T}$PEPTIDE1,PEPTIDE1,4:R3-10:R2$$$V2.0) .
OUTPUT: 1

====

- test method notes: clinical
- Set-up: species or system human
- measurement parameters: human, in vivo, iv, 600 mg
Peptide text beside a SMILES is read from it.
assay readout: AUC(0-inf)
Write your answer as a measured quantity: the number, then the unit.

INPUT: Name the recorded AUC(0-inf) for CC(=O)N[C@H](C(=O)N[C@H](CO)C(=O)N[C@H]1CCNC(=O)[C@H]([C@@H](C)O)NC(=O)[C@H](CCN)NC(=O)[C@H](CCN)NC(=O)[C@H](CC(C)C)NC(=O)[C@@H](Cc2ccccc2)NC(=O)[C@H](CCN)NC1=O)[C@@H](C)O [SPR741] (HELM PEPTIDE1{[ac].T.[dS].[Dab].[Dab].[dF].L.[Dab].[Dab].T}$PEPTIDE1,PEPTIDE1,4:R3-10:R2$$$V2.0) .
OUTPUT: 133 µg·h/mL

All values here come from paper PMC6709486.
